Would you mind telling me the reported neurite formation score of each entry?
# System: Neuro-2a
# experimental.details: neurite formation score, plate-normalized to DMSO control mean 5.04 (score (0-8 scale)); higher = more or longer neurites
# run.conditions: 0.1 µM
Answer as a number with no unit attached.

In: I am curious: what neurite formation score value has been reported for O=C(/C=C/c1ccc(O)c(O)c1)c1ccc(O)cc1O ?
Out: 4.38

In: // returns reported neurite formation score for input CCn1c(N)c(C(=O)NC)c(=O)c2ccc(C#CC(C)(O)COC)nc21 (stereo not given)
Out: 4.42

In: Recorded neurite formation score of C=CC(=O)Nc1cccc(Nc2nc(Nc3ccc(NC4CN(CCF)C4)cc3OC)ncc2C(F)(F)F)c1 , please.
Out: 4.08

In: So what's the measured neurite formation score for this one? Nc1ccc(-c2ccc3ncc4ccc(=O)n(-c5cccc(C(F)(F)F)c5)c4c3c2)cn1
Out: 3.42

In: I'd like to know its neurite formation score. The molecule in question is Cn1cc(-c2ccc3ncc(Cc4ccc5ncccc5c4)n3n2)cn1
Out: 4.92

###

# System: Neuro-2a
# experimental.details: neurite formation score, plate-normalized to DMSO control mean 5.04 (score (0-8 scale)); higher = more or longer neurites
# run.conditions: 0.1 µM
Structures can show the parent of a compound that is named as a salt.
Record form. Attribute: neurite formation score. Fill in for each entry.
Enter the number alone.

In: Can you look up the measured neurite formation score of O=S(=O)(c1cccc2cnccc12)N1CCCNCC1 [Fasudil (HA-1077) HCl] for me?
Out: 5.21

In: // returns reported neurite formation score for input CC(C)NC[C@@H](C(=O)N1CCN(c2ncnc3c2[C@H](C)C[C@H]3O)CC1)c1ccc(Cl)cc1
Out: 5.04

In: I am curious: what neurite formation score value has been reported for NC1(Cc2ccc(Cl)cc2)CCN(c2ncnc3[nH]ccc23)CC1 ?
Out: 4.92

In: Param item = Cc1nc(-c2cn3c(n2)-c2ccc(-c4cnn(C(C)(C)C(N)=O)c4)cc2OCC3)n(C(C)C)n1 ; retrieve measured neurite formation score.
Out: 4.92

In: Which neurite formation score value belongs to Cc1ccc(-c2nn(C(C)(C)C)c3ncnc(N)c23)cc1 ?
Out: 3.54

In: # lookup: neurite formation score of Cc1[nH]c(/C=C2\C(=O)Nc3ccc(S(=O)(=O)Cc4c(Cl)cccc4Cl)cc32)c(C)c1C(=O)N1CCC[C@@H]1CN1CCCC1
Out: 5.04

In: Looking for the measured neurite formation score of NC(=O)c1ccc(N(C(N)=O)c2c(F)cccc2F)nc1-c1ccc(F)cc1F , can you help?
Out: 4.58

In: State the recorded neurite formation score for this entry: Cc1ccc(Nc2nccc(N(C)c3ccc4c(C)n(C)nc4c3)n2)cc1S(N)(=O)=O [Pazopanib Hydrochloride]
Out: 4.88

In: What measured neurite formation score goes with CCS(=O)(=O)Nc1ccc2[nH]c(O)c(C(=Nc3ccc(CN4CCCCC4)cc3)c3ccccc3)c2c1 ?
Out: 3.92

###

# Tested on: Neuro-2a
# experimental.details: neurite formation score, plate-normalized to DMSO control mean 5.04 (score (0-8 scale)); higher = more or longer neurites
# run.conditions: 0.1 µM
Where a name gives a salt, the structure may show the parent alone.
Returns true if the recorded neurite formation score is greater than or equal to 5, and false otherwise.

In: Assess whether reported neurite formation score for Cc1cc(C)c(/C=C2\C(=O)Nc3ccccc32)[nH]1 [Semaxanib (SU5416)] sits at 5 or higher.
Out: true

In: Form field: neurite formation score at least 5? Entry: CCCCCCCCCCCCc1ccc(S(=O)(=O)Nc2nncs2)cc1
Out: true

In: Check if neurite formation score >= 5 (inclusive). Item: CN1CCC(CNc2ccc3ncc(-c4cccc(OC(F)(F)F)c4)n3n2)CC1 [SGI-1776 free base]
Out: true

In: Is the recorded value of neurite formation score equal to or greater than 5 for this compound? CCn1c2ccccc2c2cc(Nc3ccnc(NCCCN4CCOCC4)n3)ccc21
Out: false

In: API: above_or_equal(metric=neurite formation score, cutoff=5) for item NC(=O)c1ncn([C@@H]2O[C@H](CO)[C@@H](O)[C@H]2O)c1N
Out: true

In: Decide: neurite formation score of CS(=O)(=O)N1CCN(Cc2cc3nc(-c4cccc5[nH]ncc45)nc(N4CCOCC4)c3s2)CC1 [GDC-0941 dimethanesulfonate] >= 5?
Out: false

In: Check this compound for neurite formation score at or above 5: COc1ccc2c(OCc3nnc4ccc(-c5ccccc5)nn34)ccnc2c1
Out: true

In: neurite formation score >= 5 for Cc1nc(Nc2ncc(C(=O)Nc3c(C)cccc3Cl)s2)cc(N2CCN(CCO)CC2)n1 ?
Out: false

In: Hi, just wondering whether NC(=S)N/N=C/c1ncccc1N shows neurite formation score of 5 or higher.
Out: false

In: Can CN(C)S(=O)(=O)c1ccc2c(c1)/C(=C/c1cc3c([nH]1)CCCC3)C(=O)N2 be said to have neurite formation score at or above 5?
Out: false

In: Quick check, neurite formation score >= 5? COc1ccc2c(c1)c(C1=C(c3c[nH]c4ccccc34)C(=O)NC1=O)cn2CCCN(C)C
Out: true

In: Confirm if neurite formation score reported for the compound Cc1c(Cn2c(C)nc3c(C(=O)O)cc(N4CCOCC4)cc32)cccc1C(F)(F)F is 5 or above.
Out: false

In: Entry O=S(=O)(c1cccc2c(O)nccc12)N1CCCNCC1 [Hydroxyfasudil hydrochloride] : is its neurite formation score no less than 5?
Out: false

In: In plain terms: is recorded neurite formation score at least 5 for CCCCCCCCCCCCCCCCCC(=O)OC[C@H](CO)OC(=O)CCCCCCCCCCCCCCCCC ?
Out: true

In: Dear colleague, could you confirm whether CC(C)(C#N)c1ccc(N2C(=O)OCc3cnc4ccc(-c5cnc6ccccc6c5)cc4c32)cc1 has neurite formation score at or above 5?
Out: false

In: I'd appreciate it if you could say whether N#Cc1cccc(-c2c[nH]c3ncnc(N4CCOCC4)c23)c1 has neurite formation score at least equal to 5.
Out: false

In: Say whether COc1cc(Nc2ncc(F)c(Nc3ccc4c(n3)NC(=O)C(C)(C)O4)n2)cc(OC)c1OC [R406 (free base)] shows neurite formation score of 5 or more.
Out: true
